Test system: NCI-H522
Assay: NCI tumour cell line growth inhibition, 48 h
The source made the active and inactive calls. Rule as the data show it: active = GI50 up to about 1.1 µM and inactive = higher.
assayEndpoint: GI50

[N-]=[N+]=N[C@H]1C[C@@H](CO)O[C@H]1n1cnc2c(N)ncnc21 :: > 100 µM (inactive)

Query: Read off the recorded GI50 for Cc1ccc(-c2n[nH]c(=O)n2N2C(=O)c3ccccc3C2=O)cc1
Reply: > 100 µM (inactive)

Query: Read off the recorded GI50 for O=C(c1ccccc1O)c1cc(-c2ncc3c(=O)c4ccccc4oc3n2)c(-c2ccccc2O)[nH]c1=O
Reply: 25.2 µM (inactive)

Query: Read off the recorded GI50 for Cc1ccc(C2=NN(C)COC2C(F)(F)F)cc1 (centres undefined)
Reply: > 100 µM (inactive)

Query: Read off the recorded GI50 for CC12c3ccccc3C(OC=O)(c3ccccc31)C1(C)c3ccccc3C2(OC=O)c2ccccc21
Reply: > 100 µM (inactive)

Query: Read off the recorded GI50 for O=C1OC(c2ccco2)=N/C1=C\c1ccc(Cl)c(Cl)c1
Reply: 51.4 µM (inactive)

Query: Read off the recorded GI50 for NC(=O)C(c1ccccc1)N1OC2C(=O)N(c3cccc4ccccc34)C(=O)C2C1c1c2ccccc2c(Cl)c2ccccc12 (centres undefined)
Reply: 10.1 µM (inactive)

Query: Read off the recorded GI50 for CS/C1=C(\c2ccc(C)cc2)N(c2ccccc2)C(=O)C(=O)N(c2ccccc2)/C(c2ccc(C)cc2)=C(/SC)SS1
Reply: > 100 µM (inactive)

Query: Read off the recorded GI50 for O=C(NN1C(=O)/C(=C/c2ccc(Cl)cc2)N=C1c1ccccc1)c1c(Cl)c(Cl)c(Cl)c(Cl)c1-c1nc2ccccc2[nH]1
Reply: 18.2 µM (inactive)
